All values here come from ChEMBL document CHEMBL1124956.

molecular target: Renin (Homo sapiens, UniProt P00797); assay: In vitro inhibitory activity against human renal renin using radioimmunoassay for angiotensin I production
Sequence (P00797 whole entry): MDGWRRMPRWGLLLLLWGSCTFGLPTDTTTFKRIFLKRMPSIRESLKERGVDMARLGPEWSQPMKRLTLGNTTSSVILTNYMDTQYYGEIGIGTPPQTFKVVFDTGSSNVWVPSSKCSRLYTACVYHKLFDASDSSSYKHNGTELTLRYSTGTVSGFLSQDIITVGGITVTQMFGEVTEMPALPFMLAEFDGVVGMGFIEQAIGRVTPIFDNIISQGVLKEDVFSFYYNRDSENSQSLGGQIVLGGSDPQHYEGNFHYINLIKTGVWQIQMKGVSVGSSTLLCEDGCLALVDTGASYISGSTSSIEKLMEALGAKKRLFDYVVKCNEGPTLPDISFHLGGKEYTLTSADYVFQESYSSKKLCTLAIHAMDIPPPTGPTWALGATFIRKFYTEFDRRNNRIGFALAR
measuredEndpoint: IC50
Returns: string containing the number followed by the unit.

These recorded examples may help you get a feel for the data.
[[record]]
molecule = "C=C(C[C@H](O)[C@H](CC1CCCCC1)NC(=O)C(Cc1c[nH]cn1)NC(=O)[C@H](Cc1ccccc1)NC(=O)OC(C)(C)C)C(=O)NCC(C)C (some centres not stated)"
measuredendpoint = "IC50"
observedvalue = "0.002 µM"

[[record]]
molecule = "C=C(C[C@H](O)[C@H](CC1CCCCC1)NC(=O)[C@@H](C)C[C@@H](O)[C@H](Cc1ccccc1)NC(=O)OC(C)(C)C)C(=O)NCC(C)C"
measuredendpoint = "IC50"
observedvalue = "0.1 µM"

[[record]]
molecule = "C=C(C[C@H](O)[C@H](CC1CCCCC1)NC(=O)C(CCCC)CC(O)[C@H](Cc1ccccc1)NC(=O)OC(C)(C)C)C(=O)NCC(C)C (some centres not stated)"
measuredendpoint = "IC50"
observedvalue = "0.0055 µM"

[[record]]
molecule = "C=CCCC[C@@H](C[C@@H](O)[C@H](Cc1ccccc1)NC(=O)OC(C)(C)C)C(=O)N[C@@H](CC1CCCCC1)[C@@H](O)CC(=C)C(=O)NCC(C)C"
measuredendpoint = "IC50"
observedvalue = "0.008 µM"

[[record]]
molecule = "C=C(C[C@H](O)[C@H](CC1CCCCC1)NC(=O)C(CC(C)C)NC(=O)[C@H](Cc1ccccc1)NC(=O)OC(C)(C)C)C(=O)NCC(C)C (some centres not stated)"
measuredendpoint = "IC50"
observedvalue = "0.006 µM"

[[record]]
molecule = "C=C(C[C@H](O)[C@H](CC1CCCCC1)NC(=O)[C@@H](C[C@H](O)[C@H](Cc1ccccc1)NC(=O)OC(C)(C)C)Cn1ccnn1)C(=O)NCC(C)C"
measuredendpoint = "IC50"
observedvalue = "2.7 µM"


Please state IC50 for every molecule in the list that follows.
1. C=C(C[C@H](O)[C@H](CC1CCCCC1)NC(=O)[C@@H](C[C@@H](O)[C@H](Cc1ccccc1)NC(=O)OC(C)(C)C)Cn1ccnn1)C(=O)NCC(C)C
2. C=C(C[C@H](O)[C@H](CC1CCCCC1)NC(=O)C(CCCCC)CC(O)[C@H](Cc1ccccc1)NC(=O)OC(C)(C)C)C(=O)NCC(C)C (some centres not stated)
3. C=CCCCC(NC(=O)[C@H](Cc1ccccc1)NC(=O)OC(C)(C)C)C(=O)N[C@@H](CC1CCCCC1)[C@@H](O)CC(=C)C(=O)NCC(C)C (mixture of isomers)
4. CC(C)C[C@H](C[C@@H](O)[C@H](Cc1ccccc1)NC(=O)OC(C)(C)C)C(=O)N[C@@H](CC1CCCCC1)[C@@H](O)[C@@H](CO)CC(C)C

1: 0.095 µM; 2: 0.019 µM; 3: 0.018 µM; 4: 0.006 µM

Please state IC50 for every molecule in the list that follows.
1. C=C(C[C@H](O)[C@H](CC1CCCCC1)NC(=O)C(CC(C)C)CC(O)[C@H](Cc1ccccc1)NC(=O)OC(C)(C)C)C(=O)NCC(C)C (some centres not stated)
2. C=C(C[C@H](O)[C@H](CC1CCCCC1)NC(=O)C(C)CC(O)[C@H](Cc1ccccc1)NC(=O)OC(C)(C)C)C(=O)NCC(C)C (single isomer, unassigned)

["0.025 µM", "0.02 µM"]
